system: KM12 colon; assay: NCI tumour cell line growth inhibition, 48 h
Catalogue of TGI readings, one per entry.
Write the answer as a number in µM, unit excluded.

Query: Quick one: give measured TGI for `O=C(Cc1nc2ccccc2[nH]c1=O)c1c[nH]c2ccccc12`
Result: 58

// moving on: another record for TGI
Query: Retrieve TGI measured for `O=[N+]1[C@H](c2ccccc2)[C@H](c2ccccc2)N1[O-]` and print it.
Result: 45.3

* * *

test system: OVCAR-5 ovarian; experiment: NCI tumour cell line growth inhibition, 48 h
observed.property: TGI

Query: Provide one value: measured TGI of COc1cccc(/C=N\NC(=O)C(C)SC(C)C(=O)N/N=C/c2cccc(OC)c2)c1 (centres undefined)
Result: > 100 µM

Query: Consider the compound `O=[N+]([O-])c1cccc(Nc2nc(Cl)nc(Cl)n2)c1` . State its measured TGI.
Result: > 100 µM

Query: Identify the reported TGI for the following entry. `CO/C(=N\N=C\c1ccc(Cl)c(Cl)c1)c1ccncc1`
Result: > 10 µM

Next:
Query: Provide TGI value for the following compound: `Cc1c(/C=N/NC(=S)N2CCCCC2)c(=O)n(-c2ccccc2)n1C`
Result: > 100 µM

Query: Give TGI for the following compound: `COc1ccccc1NC(=O)C1=C(C)NC(C)=C(C(=O)Nc2ccccc2OC)C1c1ccco1`
Result: > 100 µM

Query: Fill in reported TGI for this entry: `COc1ccc(/C=N/NS(=O)(=O)c2ccccc2)cc1`
Result: > 100 µM

Query: For O=C1C(=O)C2(CC1S(=O)(=O)c1ccccc1)c1ccccc1-c1ccccc12 (centres undefined) , write its TGI.
Result: 46.5 µM

Query: Identify measured TGI corresponding to `O=[N+]([O-])c1cccc2nccc(NCCN3CCOCC3)c12`
Result: 38.4 µM

Query: Please look at this compound and report its TGI: `CC[C@H]1OC(=O)[C@H](C)[C@@H](O[C@H]2C[C@@](C)(OC)[C@@H](O)[C@H](C)O2)[C@H](C)[C@@H](O[C@@H]2O[C@H](C)C[C@H](N(C)C)[C@H]2O)[C@](C)(OC)C/C(C)=C2/O[C@@]1(C)C=C2C`
Result: 3.06 µM

* * *

system: BT-549 breast; assay: NCI tumour cell line growth inhibition, 48 h; in the data active = GI50 below about 0.43 µM; inactive = the rest
A correct response names exactly one class from 1.0 for active, 0.0 for inactive

Query: Write down the call the test reported for this molecule. Item: CC1(C)C2CCC13C(=O)C1OC3(C2)C2C(=O)c3c(ccc4c3ccc3ccccc34)C(=O)C12 (stereo unspecified)
Result: 0.0

Next item in the queue.
Query: Please share the test call associated with CSC1=Nc2c(c(C)c(-c3ccccc3)n2COC(CO)CO)C2=NC(=O)CC(C)N12 (stereo unspecified) .
Result: 0.0

* * *

system: HOP-92 NSCLC; assay: NCI tumour cell line growth inhibition, 48 h
Where a SMILES comes first, the peptide text is derived from it. The star is where a group is joined. Boc = CC(C)(C)OC(=O)*; nBu = CCCC*
Assign class by TGI: not lower than 40 µM means y; lower than 40 µM means n.

A selection of reference data follows.
Query: Has `Cc1[nH]c(-c2ccccc2)c2nc(N(C)C)oc(=O)c12` a recorded TGI greater than or equal to 40 µM?
Result: y

Query: Is TGI at least 40 µM? Consider COc1cccc(/C=N\NC(=O)C(C)SC(C)C(=O)N/N=C/c2cccc(OC)c2)c1 (stereo not given)
Result: n

Query: Hi, just wondering whether `Cn1c(=O)c2c(nc(N/N=C/c3ccccc3C(=O)O)n2C)n(C)c1=O` shows TGI of 40 µM or higher.
Result: y

Continuing:
Query: Is the recorded value of TGI equal to or greater than 40 µM for this compound? `CNC(=O)OCc1nc(SC)n(C)c1COC(=O)NC`
Result: y

Query: Given `COc1ccc(-c2c(N)noc2-c2cc(OC)c3c(c2)OCCO3)cc1` , state whether its TGI is at least 40 µM.
Result: y

Query: Has `CCOC(=O)/C(=C\c1ccc2ccccc2c1)P(=O)(OCC)OCC` a recorded TGI greater than or equal to 40 µM?
Result: n

Query: Is TGI at least 40 µM? Consider COc1cccc(C23CCN(C)C(CC(O)C2)C3)c1OC (stereo not given)
Result: y

Query: Can `CCOC(=O)c1c(NC(=O)c2ccc(Cl)cc2)sc2c(CN(C)C)c(O)ccc12` be said to have TGI at or above 40 µM?
Result: n

Query: Exam item: decide whether the reported TGI for CCCCOc1ccc(CC(NC(=O)OC(C)(C)C)C(=O)NC(C)C(=O)NC(Cc2ccccc2)C(=O)NCC(N)=O)cc1 (stereo not given) (Boc-Y(nBu)AFG-NH2; configuration not given here) is at least 40 µM.
Result: y

Query: Form field: TGI at least 40 µM? Entry: `CCOC(=O)[C@@H]1CSC(CC)=C(C(=O)O)N1`
Result: y

Values were extracted from PubChem BioAssay (NCI).
